test_summary: BTK FAC plasma stability assay, rat plasma
Assay type: in vitro ADME
run_parameters: incubation to 24 h
Reported Plasma stability (h) rat is given for each of the following compounds.

>  <compound>
CCCCCCCCCCCN(C(=O)CCCCCCCCCC(=O)O)C(CCC(=O)NCCOCCOCCOCCOCCOCCOCCOCCOCCOCCOCCOCCOCCC(=O)NCc1cc(C(=O)OC(C)(C)c2ccc(C(=O)Nc3cc(F)cc(-c4ncnc5[nH]c(-c6ccc(CCN7CCC8(CC7)CCN(C(=O)c7ccc(OC)c(N9CCC(=O)NC9=O)c7)CC8)cc6)cc45)c3C)c(F)c2)ccn1)C(=O)O (stereo not drawn) [Example A26]

>  <Plasma stability (h) rat>
>48 h

$$$$
>  <compound>
CCCCCCCCCCCN(C(=O)CCCCCCCCCC(=O)O)[C@H](CCC(=O)NCCOCCOCCOCCOCCOCCOCCOCCOCCOCCOCCOCCOCCC(=O)NCC(=O)OC(C)(C)c1ccc(C(=O)Nc2cc(F)cc(-c3ncnc4[nH]c(-c5ccc(CCN6CCC7(CC6)CCN(C(=O)c6ccc(OC)c(N8CCC(=O)NC8=O)c6)CC7)cc5)cc34)c2C)c(F)c1)C(=O)O [Example A3]

>  <Plasma stability (h) rat>
>48 h

$$$$
>  <compound>
CCCCCCCCCCCN(C(=O)CCCCCCCCCC(=O)O)[C@@H](CCC(=O)NCCOCCOCCOCCOCCOCCOCCOCCOCCOCCOCCOCCOCCC(=O)N(CCC(=O)OC(C)(C)c1ccc(C(=O)Nc2cc(F)cc(-c3ncnc4[nH]c(-c5ccc(CCN6CCC7(CC6)CCN(C(=O)c6ccc(OC)c(N8CCC(=O)NC8=O)c6)CC7)cc5)cc34)c2C)c(F)c1)CC(=O)O)C(=O)O [Example A24]

>  <Plasma stability (h) rat>
>48 h

$$$$
>  <compound>
CCCCCCCCCCCN(C(=O)CCCCCCCCCC(=O)O)C(CCC(=O)NCCOCCOCCOCCOCCOCCOCCOCCOCCOCCOCCOCCOCCC(=O)NCCC(=O)OC(C)(C)c1ccc(C(=O)Nc2cc(F)cc(-c3ncnc4[nH]c(-c5ccc(CCN6CCC7(CC6)CCN(C(=O)c6ccc(OC)c(N8CCC(=O)NC8=O)c6)CC7)cc5)cc34)c2C)c(F)c1)C(=O)O (stereo not drawn) [Example A12]

>  <Plasma stability (h) rat>
>49 h

$$$$
>  <compound>
CCCCCCCCCCCN(C(=O)CCCCCCCCCC(=O)O)C(CCC(=O)NCCOCCOCCOCCOCCOCCOCCOCCOCCOCCOCCOCCOCCC(=O)NCC(=O)NCN(C(=O)c1ccc(C(C)(C)O)cc1F)c1cc(F)cc(-c2ncnc3[nH]c(-c4ccc(CCN5CCC6(CC5)CCN(C(=O)c5ccc(OC)c(N7CCC(=O)NC7=O)c5)CC6)cc4)cc23)c1C)C(=O)O (stereo not drawn) [Example A36]

>  <Plasma stability (h) rat>
>48 h

$$$$
>  <compound>
COCCOCCOCCOCCOCCOCCOCCOCCOCCOCCOCCOCCC(=O)NCC(=O)OC(C)(C)c1ccc(C(=O)Nc2cc(F)cc(-c3ncnc4[nH]c(-c5ccc(CCN6CCC7(CC6)CCN(C(=O)c6ccc(OC)c(N8CCC(=O)NC8=O)c6)CC7)cc5)cc34)c2C)c(F)c1 [Example A34]

>  <Plasma stability (h) rat>
5.3 h

$$$$
